Kindly find below IC50 information for 3-phosphoinositide-dependent protein kinase 1 (Homo sapiens, UniProt O15530) taken from the literature.

Illustrative cases are given below, each with its answer.
COMPOUND: COc1ccc(C#Cc2cc3c(cc2F)ncc2ncn(-c4ccc(CCN)cc4)c23)cc1
SUBJECT_OF_TEST: 3-phosphoinositide-dependent protein kinase 1 (Homo sapiens, UniProt O15530)
VALUE_KIND: IC50
OBSERVED_MEASUREMENT: ≤ 500 nM

COMPOUND: CSc1cc(OCC(=O)Nc2cccc(C(F)(F)F)c2)nc(N)n1
SUBJECT_OF_TEST: 3-phosphoinositide-dependent protein kinase 1 (Homo sapiens, UniProt O15530)
VALUE_KIND: IC50
OBSERVED_MEASUREMENT: > 2000 nM

COMPOUND: C#Cc1cc2cnc(Nc3ccc(-c4nnn[nH]4)cc3)nc2cc1OC
SUBJECT_OF_TEST: 3-phosphoinositide-dependent protein kinase 1 (Homo sapiens, UniProt O15530)
VALUE_KIND: IC50
OBSERVED_MEASUREMENT: < 5000 nM

COMPOUND: C#Cc1cc(OC)c2nc(Nc3cc(CN(C)C)cc(NC(C)=O)c3)ncc2c1Cl
SUBJECT_OF_TEST: 3-phosphoinositide-dependent protein kinase 1 (Homo sapiens, UniProt O15530)
VALUE_KIND: IC50
OBSERVED_MEASUREMENT: < 5000 nM

Please indicate recorded IC50 of COc1cc2nc(Nc3cc(CN4CCOCC4)cc(NC(C)=O)c3)ncc2cc1-c1cn[nH]c1 measured with 3-phosphoinositide-dependent protein kinase 1 (Homo sapiens, UniProt O15530).
< 5000 nM

Quote 3-phosphoinositide-dependent protein kinase 1 (Homo sapiens, UniProt O15530) IC50 for entry C#Cc1cc2cnc(Nc3cc(CN(C)C)cc(NC(C)=O)c3)nc2cc1OC .
< 5000 nM

Report IC50 on 3-phosphoinositide-dependent protein kinase 1 (Homo sapiens, UniProt O15530) for this entry: CC[C@](O)(c1cccc(F)c1)c1cc(-c2c[nH]c3ncc(-c4cnn(C)c4)nc23)nc(N)n1 (single isomer, unassigned)
90 nM

Recall the reported IC50 of CC(=O)Nc1cc(CN2CCOCC2)cc(Nc2ncc3cc(-c4cnoc4)ccc3n2)c1 on 3-phosphoinositide-dependent protein kinase 1 (Homo sapiens, UniProt O15530) and write it down.
< 5000 nM

Send back 3-phosphoinositide-dependent protein kinase 1 (Homo sapiens, UniProt O15530) IC50 of COc1cc2nc(Nc3ccc(S(=O)(=O)N4CCOCC4)cc3)ncc2cc1Br only.
< 5000 nM

Enter recorded IC50 with 3-phosphoinositide-dependent protein kinase 1 (Homo sapiens, UniProt O15530) for CSc1nc(N)nc(N[C@@H](C)C(=O)Nc2cc(C(=O)NO)cc(C(F)(F)F)c2)c1C#N here.
> 2000 nM

Report value: IC50, system: 3-phosphoinositide-dependent protein kinase 1 (Homo sapiens, UniProt O15530), compound: Brc1ccc2nc(Nc3ccc(N4CCOCC4)cc3)ncc2c1
< 5000 nM

Write IC50 of COc1cc2nc(Nc3ccc(S(N)(=O)=O)cc3)ncc2cc1Br ; system used: 3-phosphoinositide-dependent protein kinase 1 (Homo sapiens, UniProt O15530)
< 5000 nM

Report IC50 on 3-phosphoinositide-dependent protein kinase 1 (Homo sapiens, UniProt O15530) for this entry: CNc1cc(COC(=O)Nc2cccc(C(F)(F)F)c2)nc(SC)n1
> 2000 nM

Find the measured IC50 of COc1cc2c(cc1OCCc1c[nH]c3ccccc13)ncc1c(N)nc3c(C)c(N)ccc3c12 with 3-phosphoinositide-dependent protein kinase 1 (Homo sapiens, UniProt O15530) as test system.
539 nM

Please indicate recorded IC50 of CC[C@@](O)(c1cc(-c2c[nH]c3ncc(-c4cnn(C)c4)nc23)nc(N)n1)c1ccccc1F (single isomer, unassigned) measured with 3-phosphoinositide-dependent protein kinase 1 (Homo sapiens, UniProt O15530).
24 nM

Tell me its IC50 on 3-phosphoinositide-dependent protein kinase 1 (Homo sapiens, UniProt O15530): NCCCc1ccc(-n2cnc3cnc4ccc(/C=C/c5ccccc5)cc4c32)cc1
≤ 500 nM

Specify the recorded IC50 for Nc1nc(NCC(=O)Nc2cccc(C(F)(F)F)c2)cc(N2CCOCC2)n1 , system: 3-phosphoinositide-dependent protein kinase 1 (Homo sapiens, UniProt O15530).
> 2000 nM
